- run.description: Electrochemistry: cyclic voltammetry of the Mn(III)/Mn(II) redox couple
- Type: physicochemical
- measurement.setup: Mn(III)/Mn(II); 0.1 M NaCl, 0.05 M phosphate buffer, pH 7.8; ±3 mV
measured.attribute: Metal-centered redox potential E1/2

Given the entry COCCn1cc[n+](C)c1-c1c2nc(c(-c3n(CCOC)cc[n+]3C)c3ccc([n-]3)c(-c3n(CCOC)cc[n+]3C)c3nc(c(-c4n(CCOC)cc[n+]4C)c4ccc1[n-]4)C=C3)C=C2.[Mn+3] , report its measured Metal-centered redox potential E1/2.
+356 mV vs NHE

Need Metal-centered redox potential E1/2, item COCC[n+]1ccccc1-c1c2nc(c(-c3cccc[n+]3CCOC)c3ccc([n-]3)c(-c3cccc[n+]3CCOC)c3nc(c(-c4cccc[n+]4CCOC)c4ccc1[n-]4)C=C3)C=C2.[Mn+3]
+251 mV vs NHE

Item under review: COCCn1cc[n+](CCOC)c1-c1c2nc(c(-c3n(CCOC)cc[n+]3CCOC)c3ccc([n-]3)c(-c3n(CCOC)cc[n+]3CCOC)c3nc(c(-c4n(CCOC)cc[n+]4CCOC)c4ccc1[n-]4)C=C3)C=C2.[Mn+3] . Reported Metal-centered redox potential E1/2?
+365 mV vs NHE

Look up Metal-centered redox potential E1/2 for this compound: CCn1cc[n+](CC)c1-c1c2nc(c(-c3n(CC)cc[n+]3CC)c3ccc([n-]3)c(-c3n(CC)cc[n+]3CC)c3nc(c(-c4n(CC)cc[n+]4CC)c4ccc1[n-]4)C=C3)C=C2.[Mn+3]
+346 mV vs NHE

* * *

Provide the reported degradation within 2 hours of each item.
- run.description: Oxidative degradation in the presence of ascorbic acid under aerobic conditions
- Format: physicochemical
- measurement.setup: pH 7.8 (0.05 M tris buffer)
Only the number, expressed in %, is required.

I am curious: what degradation within 2 hours value has been reported for CCn1cc[n+](CC)c1-c1c2nc(c(-c3n(CC)cc[n+]3CC)c3ccc([n-]3)c(-c3n(CC)cc[n+]3CC)c3nc(c(-c4n(CC)cc[n+]4CC)c4ccc1[n-]4)C=C3)C=C2.[Mn+3] [MnTDE-2-ImP^5+] ?
3

Name the recorded degradation within 2 hours for COCC[n+]1ccccc1-c1c2nc(c(-c3cccc[n+]3CCOC)c3ccc([n-]3)c(-c3cccc[n+]3CCOC)c3nc(c(-c4cccc[n+]4CCOC)c4ccc1[n-]4)C=C3)C=C2.[Mn+3] [MnTMOE-2-PyP^5+] .
24

Param item = CC[n+]1ccccc1-c1c2nc(c(-c3cccc[n+]3CC)c3ccc([n-]3)c(-c3cccc[n+]3CC)c3nc(c(-c4cccc[n+]4CC)c4ccc1[n-]4)C=C3)C=C2.[Mn+3] [MnTE-2-PyP^5+] ; retrieve measured degradation within 2 hours.
27

Quick one: degradation within 2 hours for COCCn1cc[n+](CCOC)c1-c1c2nc(c(-c3n(CCOC)cc[n+]3CCOC)c3ccc([n-]3)c(-c3n(CCOC)cc[n+]3CCOC)c3nc(c(-c4n(CCOC)cc[n+]4CCOC)c4ccc1[n-]4)C=C3)C=C2.[Mn+3] [MnTDMOE-2-ImP^5+] ?
2

Look up degradation within 2 hours for this molecule: COCCn1cc[n+](C)c1-c1c2nc(c(-c3n(CCOC)cc[n+]3C)c3ccc([n-]3)c(-c3n(CCOC)cc[n+]3C)c3nc(c(-c4n(CCOC)cc[n+]4C)c4ccc1[n-]4)C=C3)C=C2.[Mn+3] [MnTM,MOE-2-ImP^5+]
2

Reference source for all entries: patent US8183364B2
